- target-desc: WDR5 (Homo sapiens (Human))
- test-name: Surface Plasmon Resonance (SPR) assay, KD and residence time
- Assay type: binding
- setup-conditions: surface plasmon resonance (SPR) assay; read-out: WDR5 binding affinity (KD)
measured-property: pKd
Note on units: pKd is unitless, being -log10 of a concentration expressed in mol/L.

| compound | pKd |
| --- | --- |
| C[C@@H]1CN(c2cc(F)c(C3=CCN(CCC(F)(F)F)CC3)cc2NC(=O)c2c[nH]c(=O)cc2C(F)(F)F)C[C@H](C)N1C | 8.20 |

pKd in this record for CC1CN(c2cc(F)c(-c3cnc(N4CCOCC4)nc3)cc2NC(=O)c2cc[nH]n2)CCN1C (stereo in doubt) : 6.23

pKd in this record for `C[C@@H]1CN(c2cc(F)c(C3=CCN(c4ccccn4)CC3)cc2NC(=O)c2c[nH]c(=O)cc2C(F)(F)F)C[C@H](C)N1C` : 9.03

###

- target-desc: WDR5 (Homo sapiens (Human), UniProt P61964)
- test-name: Surface Plasmon Resonance (SPR) assay, KD and residence time
- Assay type: binding
- setup-conditions: surface plasmon resonance (SPR) assay; read-out: WDR5 binding affinity (KD)
Listing of entries alongside the reported pKd.
Note on units: pKd is unitless, being -log10 of a concentration expressed in mol/L.

Some compounds with known pKd results, for comparison:
| compound | measured-property | test-result |
| --- | --- | --- |
| C[C@@H]1CN(c2cc(F)c(-c3ccc(C(F)(F)F)cc3)cc2NC(=O)c2c[nH]c(=O)cc2C(F)(F)F)C[C@H](C)N1C [Example 144] | pKd | 8.22 |
| Cc1cc(C)nc(N2CC=C(c3cc(NC(=O)c4c[nH]c(=O)cc4C(F)(F)F)c(N4C[C@@H](C)N(C)[C@@H](C)C4)cc3F)CC2)n1 [Example 368] | pKd | 8.64 |
| C[C@@H]1CN(c2cc(F)c(C3=CCN(C(=O)C(C)(C)C)CC3)cc2NC(=O)c2c[nH]c(=O)cc2C(F)(F)F)C[C@H](C)N1C [Example 243] | pKd | 8.67 |
| CC1CN(c2cc(F)c(-c3ccc(N4CCOCC4)cc3)cc2NC(=O)c2cnn(C)c2)CCN1C (stereo in doubt) [Example 122] | pKd | 7.15 |
| C[C@@H]1CN(c2cc(F)c(-c3ccc(OCC4CC4)cc3)cc2NC(=O)c2cn(C)c(=O)cc2C(F)(F)F)C[C@H](C)N1C [Example 228] | pKd | 8.14 |

The compound C[C@@H]1CN(c2cc(F)c(C3=CCN(C(=O)N4CCCC4)CC3)cc2NC(=O)c2c[nH]c(=O)cc2C(F)(F)F)C[C@H](C)N1C [Example 286] , when measured on WDR5 (Homo sapiens (Human), UniProt P61964), yielded pKd of 8.93

The compound C[C@@H]1CN(c2cc(F)c(-c3cnc4c(c3)CCN4)cc2NC(=O)c2c[nH]c(=O)cc2C(F)(F)F)C[C@H](C)N1C [Example 172] , when measured on WDR5 (Homo sapiens (Human), UniProt P61964), yielded pKd of 7.99

The compound C[C@@H]1CN(c2cc(F)c(-c3cncc(C(=O)NC(C)(C)C)c3)cc2NC(=O)c2c[nH]c(=O)cc2C(F)(F)F)C[C@H](C)N1C [Example 174] , when measured on WDR5 (Homo sapiens (Human), UniProt P61964), yielded pKd of 8.82

The compound CN(C)[C@@H]1CCN(c2cc(F)c(-c3cnc(N4CCOCC4)nc3)cc2NC(=O)c2cn(C)nc2C(F)(F)F)C1 [Example 283] , when measured on WDR5 (Homo sapiens (Human), UniProt P61964), yielded pKd of 7.83

The compound CC(C)[C@@H]1CN(c2ncc(-c3cc(NC(=O)c4c[nH]c(=O)cc4C(F)(F)F)c(N4CCN(C)[C@H](C)C4)cc3F)cn2)CCO1 (stereo in doubt) [Example 347] , when measured on WDR5 (Homo sapiens (Human), UniProt P61964), yielded pKd of 9.22

The compound C[C@@H]1CN(c2cc(F)c(-c3cnc(N4CCOCC4)nc3)cc2NC(=O)c2cc(C(F)(F)F)ccc2F)C[C@H](C)N1C [Example 189] , when measured on WDR5 (Homo sapiens (Human), UniProt P61964), yielded pKd of 6.35

The compound CN(C)[C@@H]1CCN(c2cc(F)c(-c3ccc(OCC4CC4)nc3)cc2NC(=O)c2c[nH]c(=O)cc2C(F)(F)F)C1 [Example 238] , when measured on WDR5 (Homo sapiens (Human), UniProt P61964), yielded pKd of 8.29

###

- target-desc: UniProt:P61964
- test-name: Surface Plasmon Resonance (SPR) assay, KD and residence time
- Type: binding
- setup-conditions: surface plasmon resonance (SPR); read-out: WDR5 binding affinity (KD)
- Description: (i) Surface Plasmon Resonance (SPR) Assay The lifetime of a drug on its target is determined by two rate constants: the association rate constant (kon) and the dissociation rate constant (koff). […] Drug-target residence time is defined as the reciprocal of koff (τ=1/koff), making the residence time a parameter that is easily measured by routine in vitro assay methods.
measured-property: Kd (µM)
Write the value in µM as a bare number.

Some compounds with known Kd results, for comparison:
| compound | unit-name | test-result |
| --- | --- | --- |
| C[C@@H]1CN(c2cc(F)c(-c3cccc4scnc34)cc2NC(=O)c2c[nH]c(=O)cc2C(F)(F)F)C[C@H](C)N1C | µM | 0.00529 |
| C[C@@H]1CN(c2cc(F)c(-c3cnc(N4CCOCC4)nc3)cc2NC(=O)c2ccc(F)cc2C(F)F)C[C@H](C)N1C | µM | 0.00136 |
| CNc1nccc(-c2cc(NC(=O)c3c[nH]c(=O)cc3C(F)(F)F)c(N3C[C@@H](C)N(C)[C@@H](C)C3)cc2F)n1 | µM | 0.00302 |
| C[C@@H]1CN(c2nccc(-c3cc(NC(=O)c4c[nH]c(=O)cc4C(F)(F)F)c(N4C[C@@H](C)N(C)[C@@H](C)C4)cc3F)n2)CCO1 (racemic) | µM | 0.00131 |
| C[C@@H]1CN(c2cc(F)c(-c3csc(C(=O)N4CCN(C)CC4)n3)cc2NC(=O)c2c[nH]c(=O)cc2C(F)(F)F)C[C@H](C)N1C | µM | 0.00103 |

Next:
Kd in this record for `C[C@@H]1CN(c2cc(F)c(-c3ccnc(N4CCOCC4)n3)cc2NC(=O)c2cn(C)c(=O)cc2C(F)F)C[C@H](C)N1C` : 13600

###

Listing of entries alongside the reported pKd.
- target-desc: WDR5 (Homo sapiens (Human), UniProt P61964)
- test-name: Surface Plasmon Resonance (SPR) assay, KD and residence time
- Type: binding
- setup-conditions: surface plasmon resonance (SPR); read-out: WDR5 binding affinity (KD)
Note on units: pKd is unitless, being -log10 of a concentration expressed in mol/L.

Some compounds with known pKd results, for comparison:
| compound | target-desc | test-result |
| --- | --- | --- |
| C[C@@H]1CN(c2cc(F)c(-c3ccc4c(c3)ncn4C)cc2NC(=O)c2cn(C)c(=O)cc2C(F)F)C[C@H](C)N1C [Example 680] | WDR5 (Homo sapiens (Human), UniProt P61964) | 7.24 |
| C[C@@H]1CN(c2cc(F)c(-c3ccc(N4CCO[C@@H](C)C4)nc3)cc2NC(=O)c2c[nH]c(=O)cc2C(F)(F)F)C[C@H](C)N1C (racemic) [Example 434] | WDR5 (Homo sapiens (Human), UniProt P61964) | 9.21 |
| C[C@H]1CN(c2cc(F)c(C3=CCN(c4cnc(C#N)nc4)CC3)cc2NC(=O)c2c[nH]c(=O)cc2C(F)F)CCN1C [Example 639] | WDR5 (Homo sapiens (Human), UniProt P61964) | 8.30 |
| C[C@@H]1CN(c2cc(F)c(-c3cnn(CCN4CCOCC4)c3)cc2NC(=O)c2c[nH]c(=O)cc2C(F)(F)F)C[C@H](C)N1C [Example 716] | WDR5 (Homo sapiens (Human), UniProt P61964) | 8.62 |
| C[C@@H]1CN(c2cc(F)c(-c3ncc(C#N)s3)cc2NC(=O)c2c[nH]c(=O)cc2C(F)(F)F)C[C@H](C)N1C [Example 447] | WDR5 (Homo sapiens (Human), UniProt P61964) | 8.54 |

Next:
pKd in this record for CC1CN(c2cc(F)c(-c3ccc(N4CCNCC4)nc3)cc2NC(=O)c2ccc(F)cc2C(F)(F)F)CCN1C (stereo in doubt) [Example 530] : 8.67

###

- target-desc: WDR5 (Homo sapiens (Human))
- test-name: Surface Plasmon Resonance (SPR) assay, KD and residence time
- Format: binding
- setup-conditions: surface plasmon resonance (SPR) assay; read-out: WDR5 binding affinity (KD)
measured-property: Kd (nM)
Write the value in nM as a bare number.

| smiles-str | target-desc | Kd, nM |
| --- | --- | --- |
| C[C@@H]1CN(c2cc(F)c(-c3ccc(N4CCCC4)cc3)cc2NC(=O)c2c[nH]c(=O)cc2C(F)(F)F)C[C@H](C)N1C | WDR5 (Homo sapiens (Human)) | 4.06 |

Next:
Kd in this record for `C[C@@H]1CN(c2ncc(-c3cc(NC(=O)c4c[nH]c(=O)cc4C(F)F)c(N4C[C@@H](C)N(C)[C@@H](C)C4)cc3F)cn2)CCO1` : 1.49
